Reported pIC50 values are given for each entry in this list.
TESTED TARGET: ATX (Rattus norvegicus, UniProt Q64610)
MEASUREMENT DESCRIPTION: Choline oxidase-coupled choline-release assay of LPC hydrolysis by ATX
PARTICULARS: 16:0 LPC, 150 μM LPC, 20 nM ATX
Friendly reminder that pIC50 comes from taking -log10 of the concentration in mol/L.

C[C@H](CCC(=O)N1CCC(Oc2ccc([B-](F)(F)F)cc2)CC1)[C@H]1CC[C@H]2C3[C@@H](O)C[C@@H]4C[C@H](O)CC[C@]4(C)[C@H]3CC[C@]12C.[K+] (some centres unmarked) [Compound 22]    7.14

Alright, here's another compound for you.
Ask: I'd like to know its pIC50. The compound in question is C[C@H](CCC(=O)N1CCC(Oc2ccc(B(O)O)cc2)CC1)[C@H]1CC[C@H]2C3[C@@H](O)C[C@@H]4C[C@H](O)CC[C@]4(C)[C@H]3CC[C@]12C (some centres unmarked) [Compound 23]
Reply: 7.47

###

TESTED TARGET: ATX (Rattus norvegicus, UniProt Q64610)
MEASUREMENT DESCRIPTION: Choline oxidase-coupled choline-release assay of LPC hydrolysis by ATX
PARTICULARS: LPC hydrolysis assay, 20 nM ATX
# binning rule on Residual Activity (%): low (below 1%), medium (1% to below 10%), high (10% or more)

Examples with answers:
C[C@H](CCC(=O)NCCCOc1ccc(S(N)(=O)=O)cc1)[C@H]1CC[C@H]2C3[C@@H](O)C[C@@H]4C[C@H](O)CC[C@]4(C)[C@H]3CC[C@]12C (some centres unmarked)    high
C[C@H](CCC(=O)NCCCOc1ccc(B(O)O)cc1)[C@H]1CC[C@H]2C3[C@@H](O)C[C@@H]4C[C@H](O)CC[C@]4(C)[C@H]3CC[C@]12C (some centres unmarked)    low
C[C@H](CCC(=O)NCCCCOc1ccc(S(N)(=O)=O)cc1)[C@H]1CC[C@H]2C3[C@@H](O)C[C@@H]4C[C@H](O)CC[C@]4(C)[C@H]3CC[C@]12C (some centres unmarked)    high
C[C@H](CCC(=O)NCCCOc1ccc([B-](F)(F)F)cc1)[C@H]1CC[C@H]2C3[C@@H](O)C[C@@H]4C[C@H](O)CC[C@]4(C)[C@H]3CC[C@]12C.[Na+] (some centres unmarked)    medium
C[C@H](CCC(=O)NCCOc1cccc(B2OC(C)(C)C(C)(C)O2)c1)[C@H]1CC[C@H]2C3[C@@H](O)C[C@@H]4C[C@H](O)CC[C@]4(C)[C@H]3CC[C@]12C (some centres unmarked)    high

Ask: Assign a category based on measured Residual Activity (%) for C[C@H](CCC(=O)N1CCC(Oc2ccc(B3OC(C)(C)C(C)(C)O3)cc2)CC1)[C@H]1CC[C@H]2C3[C@@H](O)C[C@@H]4C[C@H](O)CC[C@]4(C)[C@H]3CC[C@]12C (some centres unmarked) and give only the class name.
Reply: low

Ask: Assign a category based on measured Residual Activity (%) for C[C@H](CCC(=O)NCCOc1ccc(S(N)(=O)=O)cc1)[C@H]1CC[C@H]2C3[C@@H](O)C[C@@H]4C[C@H](O)CC[C@]4(C)[C@H]3CC[C@]12C (some centres unmarked) and give only the class name.
Reply: high

Ask: Assign a category based on measured Residual Activity (%) for C[C@H](CCC(=O)NCCOc1ccc(B2OC(C)(C)C(C)(C)O2)cc1)[C@H]1CC[C@H]2C3[C@@H](O)C[C@@H]4C[C@H](O)CC[C@]4(C)[C@H]3CC[C@]12C (some centres unmarked) and give only the class name.
Reply: medium

Ask: Assign a category based on measured Residual Activity (%) for C[C@H](CCC(=O)N1CCC(Oc2ccc(B(O)O)cc2)CC1)[C@H]1CC[C@H]2C3[C@@H](O)C[C@@H]4C[C@H](O)CC[C@]4(C)[C@H]3CC[C@]12C (some centres unmarked) and give only the class name.
Reply: low

Ask: Assign a category based on measured Residual Activity (%) for C[C@H](CCC(=O)N1CC[C@@H](Oc2ccc(B3OC(C)(C)C(C)(C)O3)cc2)C1)[C@H]1CC[C@H]2C3[C@@H](O)C[C@@H]4C[C@H](O)CC[C@]4(C)[C@H]3CC[C@]12C (some centres unmarked) and give only the class name.
Reply: medium

These measurements were taken from paper PMC9059126.
